- Experimental target: Relaxin-3 receptor 1 (Homo sapiens, UniProt Q9NSD7)
- Sequence (Q9NSD7 whole entry): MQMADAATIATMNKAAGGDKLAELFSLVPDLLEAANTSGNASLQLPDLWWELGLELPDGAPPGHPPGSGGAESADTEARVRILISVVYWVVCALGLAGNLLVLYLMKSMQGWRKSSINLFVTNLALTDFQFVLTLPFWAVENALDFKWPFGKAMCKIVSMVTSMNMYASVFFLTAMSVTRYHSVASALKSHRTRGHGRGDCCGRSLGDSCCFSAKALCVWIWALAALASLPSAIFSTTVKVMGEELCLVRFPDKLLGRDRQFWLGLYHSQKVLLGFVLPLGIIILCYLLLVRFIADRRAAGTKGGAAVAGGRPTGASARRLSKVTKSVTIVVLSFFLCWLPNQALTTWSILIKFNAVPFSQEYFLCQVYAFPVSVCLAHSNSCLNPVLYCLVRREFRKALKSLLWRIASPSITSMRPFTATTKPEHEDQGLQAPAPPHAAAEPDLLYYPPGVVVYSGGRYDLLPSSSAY
- Assay summary: Agonist activity at human RXFP3 receptor expressed in CHOK1 cells cotransfected with beta-galactosidase assessed as inhibition of forskolin-stimulated cAMP by beta-galactosidase reporter gene assay
- Type: functional, cell-based
Where a SMILES comes first, the peptide text is derived from it. Bridges are numbered along the chain shown (N, C = ends). [ ]: non-standard residue; d: D form. S5 = C=CCCC[C@](C)(N)C(=O)O
Observation type: pEC50
Numbers only, as −log10 of the molar value.

pEC50 lookup needed for CC[C@H](C)[C@@H]1NC(=O)[C@H](Cc2ccccc2)NC(=O)[C@@](C)(NC(=O)[C@H](CCCNC(=N)N)NC(=O)CNC(=O)[C@H](CO)NC(C)=O)CCC/C=C/CCC[C@@](C)(C(=O)N[C@H](C(=O)N[C@H](C(=O)N[C@@H](Cc2ccccc2)C(=O)N[C@H](C(=O)N[C@@H](CO)C(=O)NCC(=O)NCC(=O)N[C@@H](CO)C(=O)N[C@@H](CCCNC(=N)N)C(=O)N[C@@H](Cc2c[nH]c3ccccc23)C(=O)O)[C@@H](C)O)[C@@H](C)CC)C(C)C)NC(=O)[C@H](CCCNC(=N)N)NC1=O (Ac-SGR[S5]FIR[S5]VIFTSGGSRW-OH; staple (E) 4-8) , thanks.
8.48

----------
- Experimental target: Relaxin-3 receptor 1 (Homo sapiens)
- Assay summary: Agonist activity at human RXFP3 receptor expressed in CHOK1 cells cotransfected with beta-galactosidase assessed as inhibition of forskolin-stimulated cAMP by beta-galactosidase reporter gene assay
- Assay type: functional, cell-based
Where a SMILES comes first, the peptide text is derived from it. Bridges are numbered along the chain shown (N, C = ends). [ ]: non-standard residue; d: D form. S5 = C=CCCC[C@](C)(N)C(=O)O
Observation type: EC50 (µM)
One number for each entry, in µM.

1) CC[C@H](C)[C@@H]1NC(=O)[C@H](Cc2ccccc2)NC(=O)[C@@](C)(NC(=O)[C@H](CCCNC(=N)N)NC(=O)CNC(=O)[C@@H](N)CO)CCC/C=C/CCC[C@@](C)(C(=O)N[C@H](C(=O)N[C@H](C(=O)N[C@@H](Cc2ccccc2)C(=O)N[C@H](C(=O)N[C@@H](CO)C(=O)NCC(=O)NCC(=O)N[C@@H](CO)C(=O)N[C@@H](CCCNC(=N)N)C(=O)N[C@@H](Cc2c[nH]c3ccccc23)C(=O)O)[C@@H](C)O)[C@@H](C)CC)C(C)C)NC(=O)[C@H](CCCNC(=N)N)NC1=O (H-SGR[S5]FIR[S5]VIFTSGGSRW-OH; staple (E) 4-8) : 0.00447

EC50 lookup needed for CC[C@H](C)[C@H](NC(=O)[C@H](Cc1ccccc1)NC(=O)[C@H](CCC(=O)O)NC(=O)[C@H](CCCNC(=N)N)NC(=O)CNC(=O)[C@H](CO)NC(C)=O)C(=O)N[C@@H](CCCNC(=N)N)C(=O)N[C@@H](C)C(=O)N[C@H](C(=O)N[C@H](C(=O)N[C@@H](Cc1ccccc1)C(=O)N[C@H](C(=O)N[C@@H](CO)C(=O)NCC(=O)NCC(=O)N[C@@H](CO)C(=O)N[C@@H](CCCNC(=N)N)C(=O)N[C@@H](Cc1c[nH]c2ccccc12)C(=O)O)[C@@H](C)O)[C@@H](C)CC)C(C)C (Ac-SGREFIRAVIFTSGGSRW-OH) , thanks.
8.71
